Tested on: Coxsackie B virus (CoxV-B1)
Experiment: microbe, parasite or virus in culture
Settings: Vero
pEC50: −log10 of the molar value.

- Molecule: "CCCCCCCC/C=C\\CCCCCCCC(=O)ON1C(=O)CC(S(=O)(=O)O)C1=O (stereo not shown) [SSO, sulfo-N-succinimidyl oleate]"
  pEC50: "< 4.18"

----------
System: MDCK cells
Test: Cytotoxicity in MDCK cells
Assay type: cell-based
Settings: Influenza virus BV/Shenzhen/155/2005 test
Property Name: CC50

- Compound: "CCCCCCCC/C=C\\CCCCCCCC(=O)ON1C(=O)CC(S(=O)(=O)O)C1=O (stereo not shown) [SSO, sulfo-N-succinimidyl oleate]"
  Experimental System: "MDCK cells"
  Property Name: "CC50"
  Recorded Measurement: "> 200 µM"

----------
Experiment: Cytotoxicity in MDCK cells
Format: cell-based
Settings: dog, Influenza virus A/Tianjin-Jinnan/15/2009 test
Property Name: CC50

- Compound: "CCCCCCCC/C=C\\CCCCCCCC(=O)ON1C(=O)CC(S(=O)(=O)O)C1=O (stereo not shown) [SSO, sulfo-N-succinimidyl oleate]"
  Recorded Measurement: "> 200 µM"
